Assay: Voxilaprevir Form VI single and multiple oral dose pharmacokinetics in healthy subjects
Type: in vivo, human
Conditions: human, plasma, oral, 100 mg, single dose 100 mg; median
Measurement Type: half-life (h)
State just the number; it will be interpreted in h.

Task item: Query (molecule): CC[C@@H]1[C@@H]2CN(C(=O)[C@H](C(C)(C)C)NC(=O)O[C@@H]3C[C@H]3CCCCC(F)(F)c3nc4ccc(OC)cc4nc3O2)[C@@H]1C(=O)N[C@]1(C(=O)NS(=O)(=O)C2(C)CC2)C[C@H]1C(F)F [voxilaprevir, Form VI] ; field requested: half-life
Reply: 36.7

* * *

Assay: Voxilaprevir Form VI single and multiple oral dose pharmacokinetics in healthy subjects
Type: in vivo, human
Conditions: human, plasma, oral, 100 mg, multiple dose 100 mg; median; read-out: tmax
Measurement Type: Tmax (h)
Field format: number, assumed h, no unit text.

Task item: Given CC[C@@H]1[C@@H]2CN(C(=O)[C@H](C(C)(C)C)NC(=O)O[C@@H]3C[C@H]3CCCCC(F)(F)c3nc4ccc(OC)cc4nc3O2)[C@@H]1C(=O)N[C@]1(C(=O)NS(=O)(=O)C2(C)CC2)C[C@H]1C(F)F [voxilaprevir, Form VI] , state its recorded Tmax.
Reply: 5
